The origin of these recorded values is ChEMBL document CHEMBL4765388.

Quick reference for GI50 among some compounds
test system: A549; assay: Antiproliferative activity against human A549 cells measured after 48 hrs by SRB assay; type: functional
Observation Type: GI50 (nM)

CCCN(C(=O)c1cc(C(C)C)c(O)cc1O)c1ccc(Cn2c(=O)c(F)cn(C3CCCO3)c2=O)cc1 (stereo unspecified) : 650
COc1ccc(CN(C(=O)c2cc(C(C)C)c(O)cc2O)c2ccc(Cn3c(=O)c(F)cn(C4CCCO4)c3=O)cc2)cc1 (stereo unspecified) : 920
CCN(C(=O)c1cc(C(C)C)c(O)cc1O)c1ccc(Cn2c(=O)c(F)cn(C3CCCO3)c2=O)cc1 (stereo unspecified) : 70
O=c1[nH]cc(F)c(=O)[nH]1 [FLUOROURACIL] : 19800
CC(C)c1cc(C(=O)N(C)c2ccc(Cn3c(=O)c(F)cn(C4CCCO4)c3=O)cc2)c(O)cc1O (stereo unspecified) : 90
CCN(C(=O)c1cc(C(C)C)c(O)cc1O)c1ccc(Cn2c(=O)[nH]cc(F)c2=O)cc1 : 40
